src = patent US11707539B2

Readings of IC50 for the listed substances
Target: recombinant human fibroblast activation protein (FAP) (Homo sapiens (Human), UniProt Q12884)
Sequence (Q12884 whole entry): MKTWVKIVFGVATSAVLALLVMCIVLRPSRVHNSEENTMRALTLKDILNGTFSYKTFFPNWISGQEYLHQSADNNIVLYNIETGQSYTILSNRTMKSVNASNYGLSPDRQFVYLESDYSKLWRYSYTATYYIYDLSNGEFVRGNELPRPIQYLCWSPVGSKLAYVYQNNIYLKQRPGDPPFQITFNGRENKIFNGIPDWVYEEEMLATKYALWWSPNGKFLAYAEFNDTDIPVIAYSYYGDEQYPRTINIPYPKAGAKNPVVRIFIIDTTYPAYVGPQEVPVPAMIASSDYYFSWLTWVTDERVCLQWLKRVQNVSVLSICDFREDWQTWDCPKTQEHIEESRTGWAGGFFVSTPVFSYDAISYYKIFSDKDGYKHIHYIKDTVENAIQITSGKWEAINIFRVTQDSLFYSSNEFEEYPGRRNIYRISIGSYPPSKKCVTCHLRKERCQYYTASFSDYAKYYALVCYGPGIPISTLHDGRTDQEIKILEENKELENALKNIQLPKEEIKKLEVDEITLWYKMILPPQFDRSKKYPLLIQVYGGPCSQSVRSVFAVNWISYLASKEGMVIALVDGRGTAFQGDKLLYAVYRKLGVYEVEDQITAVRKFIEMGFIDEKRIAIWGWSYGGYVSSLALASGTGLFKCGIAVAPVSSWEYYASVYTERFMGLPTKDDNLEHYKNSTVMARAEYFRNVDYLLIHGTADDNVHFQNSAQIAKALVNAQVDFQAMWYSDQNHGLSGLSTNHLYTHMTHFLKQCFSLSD
Assay: In vitro IC50 assay, fibroblast activation protein (Example 15)
Format: biochemical
Conditions: Z-Gly-Pro-AMC, room temperature; read-out: FAP IC50
Protocol: The purpose of this assay is to determine the IC50 of various inhibitors against recombinant human dipeptidyl peptidase IV (DPPIV), fibroblast activation protein (FAP) or prolyl oligopeptidase (PREP). The assays are conducted in the following steps: • 1 Dissolve the compound in DMSO to a final concentration of 100 mM. […] Read the fluorescence at λex: 380, λem: 460. […]

(R)-DOTAGA(Ga)-Gly-Val-Dala-boroPro [Compound 6795DGA]	310 nM

Turning now to a further record.
Entry (R)-DOTAGA(Ga)-(Gly)3-Val-Dala-boroPro [Compound 6808DGA] has what IC50?
89 nM

###

Assay: Solubility in water after lyophilization
Readings of solubility for the listed molecules

C[C@@H](NC(=O)c1ccc(CNC(=O)CN2CCN(CC(=O)O)CCN(CC(=O)O)CCN(CC(=O)O)CC2)cc1)C(=O)N1CCC[C@H]1B(O)O	> 50 mg/mL

Turning now to a further record.
Entry C[C@@H](NC(=O)[C@H]1CC[C@H](CNC(=O)CN2CCN3CCN4CCN(CC2)CC(=O)[O][Ga]([O]C(=O)C3)[O]C(=O)C4)CC1)C(=O)N1CCC[C@H]1B(O)O [Compound 6952GA, DOTA(Ga)-TXA-D-alaboroPro] has what solubility?
> 50 mg/mL

###

Target: recombinant human dipeptidyl peptidase IV (DPPIV) (Homo sapiens (Human), UniProt P27487)
Sequence (P27487 whole entry): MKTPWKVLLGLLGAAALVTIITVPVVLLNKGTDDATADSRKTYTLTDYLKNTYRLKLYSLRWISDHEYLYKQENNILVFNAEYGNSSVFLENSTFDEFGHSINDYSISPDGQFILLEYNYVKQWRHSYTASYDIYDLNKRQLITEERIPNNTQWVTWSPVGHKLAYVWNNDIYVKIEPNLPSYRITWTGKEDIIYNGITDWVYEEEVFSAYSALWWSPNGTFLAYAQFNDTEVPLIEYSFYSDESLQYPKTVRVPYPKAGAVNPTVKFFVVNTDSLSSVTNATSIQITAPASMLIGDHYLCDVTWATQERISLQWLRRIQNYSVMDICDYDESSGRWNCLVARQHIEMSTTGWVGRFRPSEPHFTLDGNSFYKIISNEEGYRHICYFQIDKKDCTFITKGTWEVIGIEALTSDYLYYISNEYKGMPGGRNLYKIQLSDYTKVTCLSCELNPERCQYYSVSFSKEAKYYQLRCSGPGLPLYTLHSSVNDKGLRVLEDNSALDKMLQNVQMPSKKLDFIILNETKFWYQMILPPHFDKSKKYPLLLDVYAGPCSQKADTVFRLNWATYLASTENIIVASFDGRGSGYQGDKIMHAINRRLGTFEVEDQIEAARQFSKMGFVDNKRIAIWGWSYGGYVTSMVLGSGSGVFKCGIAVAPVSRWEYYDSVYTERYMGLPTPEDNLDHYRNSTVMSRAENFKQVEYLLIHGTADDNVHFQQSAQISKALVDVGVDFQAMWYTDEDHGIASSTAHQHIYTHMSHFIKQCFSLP
Experiment: In vitro IC50 assay, dipeptidyl peptidase IV (Example 15)
Details: Gly-Pro-AMC, room temperature
Protocol: The purpose of this assay is to determine the IC50 of various inhibitors against recombinant human dipeptidyl peptidase IV (DPPIV), fibroblast activation protein (FAP) or prolyl oligopeptidase (PREP). The assays are conducted in the following steps: • 1 Dissolve the compound in DMSO to a final concentration of 100 mM. […] Read the fluorescence at λex: 380, λem: 460. […]
READOUT: IC50

C[C@@H](NC(=O)c1ccc(NNC(=O)CCCCCC2=C(/C=C/C3=C(Oc4ccc(S(=O)(=O)O)cc4)C(=C/C=C4/N(CCCCS(=O)(=O)O)c5ccc(S(=O)(=O)O)cc5C4(C)C)/CCC3)C(C)(C)c3cc(S(=O)(=O)O)ccc32)nc1)C(=O)N1CCC[C@H]1B(O)O [Compound 4613B, IRDye800CW-3860]	> 100 µM
C[C@@H](NC(=O)c1ccc(CNC(=O)CN2CCN(CC(=O)O)CCN(CC(=O)O)CCN(CC(=O)O)CC2)cc1)C(=O)N1CCC[C@H]1B(O)O	> 100 µM

Turning now to a further record.
Entry C[C@@H](NC(=O)c1ccc(NNC(=O)CCCNC(=O)CN2CCN3CCN4CCN(CC2)CC(=O)[O][Ga]([O]C(=O)C3)[O]C(=O)C4)cc1)C(=O)N1CCC[C@H]1B(O)O [Compound 6489GA] has what IC50?
> 100 µM

###

Molecular target: recombinant human dipeptidyl peptidase IV (DPPIV) (Homo sapiens (Human), UniProt P27487)
Experiment: In vitro IC50 assay, dipeptidyl peptidase IV (Example 15)
Settings: Gly-Pro-AMC, room temperature
pIC50: −log10 of the molar value. Where a SMILES comes first, the peptide text is derived from it.
Readings of pIC50 for the listed molecules

Solved entries:
C[C@@H](NC(=O)c1ccc(NNC(=O)CN2CCN3CCN4CCN(CC2)CC(=O)[O][Gd]([O]C(=O)C3)[O]C(=O)C4)nc1)C(=O)N1CCC[C@H]1B(O)O [Compound 4536GD]	< 4.00
CC(C)[C@H](NC(=O)CNC(=O)CC[C@H](C(=O)O)N1CCN(CC(=O)O)CCN(CC(=O)O)CCN(CC(=O)O)CC1)C(=O)N[C@H](C)C(=O)N1CCC[C@H]1B(O)O [Compound 6795D, (R)-DOTAGA-Gly-Val-D-ala-boroPro]	< 4.00

Turning now to a further record.
Entry CC(C)[C@H](NC(=O)CNC(=O)CNC(=O)CN1CCN(CC(=O)O)CCN(CC(=O)O)CCN(CC(=O)O)CC1)C(=O)N[C@H](C)C(=O)N1CCC[C@H]1B(O)O [Compound 6522L, DOTA-Gly-Gly-Val-alaboroPro(L-ala)] (HELM PEPTIDE1{[O=C(O)CN1CCN(CC(=O)O)CCN(CC(=O)[*:2])CCN(CC(=O)O)CC1].G.G.V.[dA].[OB(O)[C@@H]1CCCN1[*:1]]}$$$$V2.0) has what pIC50?
5.47

###

Readings of IC50 for the listed molecules
Target: recombinant human prolyl oligopeptidase (PREP) (Homo sapiens (Human))
Test: In vitro IC50 assay, prolyl oligopeptidase (Example 15)
Assay type: biochemical
Conditions: Z-Gly-Pro-AMC, room temperature; read-out: PREP IC50
Where a SMILES comes first, the peptide text is derived from it.
Numeric answer only, unit nM assumed.

C[C@@H](NC(=O)c1ccc(NNC(=O)CCCCCNC(=O)CN2CCN3CCN4CCN(CC2)CC(=O)[O][Lu]([O]C(=O)C3)[O]C(=O)C4)nc1)C(=O)N1CCC[C@H]1B(O)O [Compound 6958LU]	155

Entry C[C@@H](NC(=O)c1ccc(NNC(=O)CN2CCN(CC(=O)O)CCN(CC(=O)O)CCN(CC(=O)O)CC2)nc1)C(=O)N1CCC[C@H]1B(O)O [Compound 4536] has what IC50?
750

Entry C[C@@H](NC(=O)c1ccc(NNC(=O)CCCCCC2=C(/C=C/C3=C(Oc4ccc(S(=O)(=O)O)cc4)C(=C/C=C4/N(CCCCS(=O)(=O)O)c5ccc(S(=O)(=O)O)cc5C4(C)C)/CCC3)C(C)(C)c3cc(S(=O)(=O)O)ccc32)cc1)C(=O)N1CCC[C@H]1B(O)O [Compound 4613C, IRDye 800CW-3860B] has what IC50?
610

Entry CC(C)[C@H](NC(=O)CNC(=O)CNC(=O)CN1CCN2CCN3CCN(CC1)CC(=O)[O][Lu]([O]C(=O)C2)[O]C(=O)C3)C(=O)N[C@H](C)C(=O)N1CCC[C@H]1B(O)O [Compound 6522LU, DOTA(Lu)-Gly-Gly-Val-D-ala-boroPro] (HELM PEPTIDE1{[O=C1CN2CCN3CCN(CC(=O)[*:2])CCN(CC2)CC(=O)[O][Lu]([O]1)[O]C(=O)C3].G.G.V.[dA].[OB(O)[C@@H]1CCCN1[*:1]]}$$$$V2.0) has what IC50?
19000

###

Target: recombinant human prolyl oligopeptidase (PREP) (Homo sapiens (Human), UniProt P48147)
Sequence (P48147 whole entry): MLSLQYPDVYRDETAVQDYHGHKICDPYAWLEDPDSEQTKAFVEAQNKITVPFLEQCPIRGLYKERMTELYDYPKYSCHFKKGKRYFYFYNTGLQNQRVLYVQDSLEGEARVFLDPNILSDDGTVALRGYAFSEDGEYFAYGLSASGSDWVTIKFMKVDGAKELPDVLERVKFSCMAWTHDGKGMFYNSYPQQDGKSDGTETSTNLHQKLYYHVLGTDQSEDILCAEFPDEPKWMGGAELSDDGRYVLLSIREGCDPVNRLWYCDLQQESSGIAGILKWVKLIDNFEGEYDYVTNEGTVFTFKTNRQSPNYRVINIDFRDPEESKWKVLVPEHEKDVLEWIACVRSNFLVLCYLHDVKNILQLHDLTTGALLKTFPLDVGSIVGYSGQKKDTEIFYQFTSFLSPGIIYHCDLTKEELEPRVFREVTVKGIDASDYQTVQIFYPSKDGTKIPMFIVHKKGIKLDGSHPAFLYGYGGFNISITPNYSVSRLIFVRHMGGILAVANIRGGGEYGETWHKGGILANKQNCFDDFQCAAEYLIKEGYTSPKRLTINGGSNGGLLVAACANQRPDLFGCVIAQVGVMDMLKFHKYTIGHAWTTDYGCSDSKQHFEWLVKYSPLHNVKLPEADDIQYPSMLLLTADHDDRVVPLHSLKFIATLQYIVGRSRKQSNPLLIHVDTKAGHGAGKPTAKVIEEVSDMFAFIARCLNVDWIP
Assay: In vitro IC50 assay, prolyl oligopeptidase (Example 15)
Format: biochemical
Conditions: Z-Gly-Pro-AMC, room temperature; read-out: PREP IC50
pIC50: −log10 of the molar value. Where a SMILES comes first, the peptide text is derived from it.
Cut-off 5 on pIC50, inclusive. At or above means criterion met; below means criterion not met.

C[C@@H](NC(=O)c1ccc(NNC(=O)CCCNC(=O)CN2CCN3CCN4CCN(CC2)CC(=O)[O][Ga]([O]C(=O)C3)[O]C(=O)C4)cc1)C(=O)N1CCC[C@H]1B(O)O [Compound 6489GA]	criterion met
CC(C)[C@H](NC(=O)CNC(=O)CNC(=O)CN1CCN2CCN3CCN(CC1)CC(=O)[O][Ga]([O]C(=O)C2)[O]C(=O)C3)C(=O)N[C@H](C)C(=O)N1CCC[C@H]1B(O)O [Compound 6522GA-02, DOTA(Ga)-Gly-Gly-Val-D-alaboroPro] (HELM PEPTIDE1{[O=C1CN2CCN3CCN(CC(=O)[*:2])CCN(CC2)CC(=O)[O][Ga]([O]1)[O]C(=O)C3].G.G.V.[dA].[OB(O)[C@@H]1CCCN1[*:1]]}$$$$V2.0)	criterion not met
C[C@@H](NC(=O)c1ccc(NNC(=O)CCCCCC2=C(/C=C/C3=C(Oc4ccc(S(=O)(=O)O)cc4)C(=C/C=C4/N(CCCCS(=O)(=O)O)c5ccc(S(=O)(=O)O)cc5C4(C)C)/CCC3)C(C)(C)c3cc(S(=O)(=O)O)ccc32)nc1)C(=O)N1CCC[C@H]1B(O)O [Compound 4613B, IRDye800CW-3860]	criterion met
C[C@@H](NC(=O)CN1CCN(CC(=O)O)CCN(CC(=O)O)CCN(CC(=O)O)CC1)C(=O)N1CCC[C@H]1B(O)O	criterion not met
C[C@@H](NC(=O)CN1CCN2CCN3CCN(CC1)CC(=O)[O][Gd]([O]C(=O)C2)[O]C(=O)C3)C(=O)N1CCC[C@H]1B(O)O [Compound 4535GD, DOTA[(Gd(III)]-D-alaboroPro]	criterion not met

Decide: pIC50 of CC(C)[C@H](NC(=O)CNC(=O)CNC(=O)CN1CCN(CC(=O)O)CCN(CC(=O)O)CCN(CC(=O)O)CC1)C(=O)N[C@H](C)C(=O)N1CCC[C@H]1B(O)O [Compound 6522L, DOTA-Gly-Gly-Val-alaboroPro(L-ala)] (HELM PEPTIDE1{[O=C(O)CN1CCN(CC(=O)O)CCN(CC(=O)[*:2])CCN(CC(=O)O)CC1].G.G.V.[dA].[OB(O)[C@@H]1CCCN1[*:1]]}$$$$V2.0) >= 5?
criterion met

Decide: pIC50 of C[C@@H](NC(=O)c1ccc(NNC(=O)CN2CCN3CCN4CCN(CC2)CC(=O)[O][Gd]([O]C(=O)C3)[O]C(=O)C4)nc1)C(=O)N1CCC[C@H]1B(O)O [Compound 4536GD] >= 5?
criterion not met

Decide: pIC50 of C[C@@H](NC(=O)c1ccc(NNC(=O)CCCCCNC(=O)CN2CCN3CCN4CCN(CC2)CC(=O)[O][Ga]([O]C(=O)C3)[O]C(=O)C4)cc1)C(=O)N1CCC[C@H]1B(O)O [Compound 6486GA] >= 5?
criterion met

Decide: pIC50 of C[C@@H](NC(=O)c1ccc(NNC(=O)CCCNC(=O)CN2CCN3CCN4CCN(CC2)CC(=O)[O][Lu]([O]C(=O)C3)[O]C(=O)C4)nc1)C(=O)N1CCC[C@H]1B(O)O [Compound 6609LU] >= 5?
criterion met
